target: T1, M2-1; assay: ELISA, 1 ug/ml
T1 construct: also called PD1 mutant M2-1
experimentalEndpoint: OD490
// response body must contain only the number

Ask: Could you tell me which OD490 is on file for PD1-49A2 (antibody, V domains shown, scFv-phage in the screening ELISA; whole IgG in the other assays; also called Parent 49A2) VH: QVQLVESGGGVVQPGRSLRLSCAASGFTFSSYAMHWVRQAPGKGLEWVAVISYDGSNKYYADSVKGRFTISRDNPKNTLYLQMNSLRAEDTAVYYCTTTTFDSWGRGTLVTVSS VL: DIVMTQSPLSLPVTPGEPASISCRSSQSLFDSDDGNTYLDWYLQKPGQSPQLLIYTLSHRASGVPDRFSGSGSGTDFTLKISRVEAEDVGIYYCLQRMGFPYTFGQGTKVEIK ?
Reply: 3.7
